Target sequence: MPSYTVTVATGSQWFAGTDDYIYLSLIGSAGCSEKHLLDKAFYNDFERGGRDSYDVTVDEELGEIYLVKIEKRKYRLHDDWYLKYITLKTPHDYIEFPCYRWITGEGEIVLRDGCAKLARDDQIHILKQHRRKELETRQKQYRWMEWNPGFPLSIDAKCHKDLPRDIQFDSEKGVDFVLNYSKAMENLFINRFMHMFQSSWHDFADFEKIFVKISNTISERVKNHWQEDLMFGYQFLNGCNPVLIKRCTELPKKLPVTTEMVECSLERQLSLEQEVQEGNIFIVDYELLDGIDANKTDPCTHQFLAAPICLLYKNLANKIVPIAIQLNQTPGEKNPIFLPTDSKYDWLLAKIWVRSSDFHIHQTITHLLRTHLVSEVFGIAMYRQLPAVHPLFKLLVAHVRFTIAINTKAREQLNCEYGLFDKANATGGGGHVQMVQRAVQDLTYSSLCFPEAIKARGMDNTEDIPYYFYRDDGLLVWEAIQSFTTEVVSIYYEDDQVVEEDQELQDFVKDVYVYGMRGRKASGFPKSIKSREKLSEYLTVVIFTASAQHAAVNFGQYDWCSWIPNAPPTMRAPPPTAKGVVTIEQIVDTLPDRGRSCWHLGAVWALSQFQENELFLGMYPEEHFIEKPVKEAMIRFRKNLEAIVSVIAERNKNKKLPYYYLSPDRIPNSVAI
pIC50: −log10 of the molar value.
Provide the reported pIC50 of each item.

[Q] Param item = Cn1c(S)nnc1-c1cc(C(C)(C)C)c(O)c(C(C)(C)C)c1 ; retrieve measured pIC50.
[A] < 4.49

[Q] Can you check CC(C)(C)c1cc(-c2nnc(S)n2N)cc(C(C)(C)C)c1O next?
[A] < 4.49

[Q] And CSc1nnc(/C=C/c2cc(C(C)(C)C)c(O)c(C(C)(C)C)c2)s1 ?
[A] < 5.00

----------
Test: Partition coefficient (logP)
Assay type: physicochemical
Details: octanol/water
endpoint label: logP
Hey, just send me the number, nothing else.

[Q] Item CC(C)(C)c1cc(-c2n[nH]c(N)n2)cc(C(C)(C)C)c1O has what recorded logP?
[A] 3.1

[Q] Note, next up: CC(C)(C)c1cc(-c2nnc(S)o2)cc(C(C)(C)C)c1O
[A] 2.3

[Q] Consider next the molecule Cn1c(O)nnc1-c1cc(C(C)(C)C)c(O)c(C(C)(C)C)c1 in the same way.
[A] 3.2

[Q] Also check CC(C)(C)c1cc(-c2nnc(S)n2N)cc(C(C)(C)C)c1O
[A] 3.3

[Q] What about this molecule? CC(C)(C)c1cc(/C=C/c2nnc(S)o2)cc(C(C)(C)C)c1O
[A] 3

[Q] Field entry: CC(C)(C)c1cc(-c2n[nH]c(S)n2)cc(C(C)(C)C)c1O
[A] 2.4

[Q] # iterate: CC(C)(C)c1cc(-c2nnc(N)o2)cc(C(C)(C)C)c1O
[A] 3.7

[Q] What about CC(C)(C)c1cc(-c2n[nH]c(=S)s2)cc(C(C)(C)C)c1O.C[N+](C)(C)CCO ?
[A] 2.7
